The entries below come with measured Ratio IC50 values attached.
System: Plasmodium falciparum
METHOD NOTES: Potency index, ratio of IC50 for QND to IC50 for test compound against Plasmodium falciparum 3D7 by parasite lactate dehydrogenase assay
Type: functional
API note: the answer field is a bare number with no unit suffix.

1) C=C[C@H]1CN2CC[C@H]1C[C@@H]2[C@@H](O)c1cc(CC[C@@H](C)[C@H]2CC[C@H]3[C@@H]4[C@H](OC(C)=O)[C@H](OC(C)=O)[C@@H]5C[C@H](OC(C)=O)CC[C@]5(C)[C@H]4CC[C@]23C)nc2ccc(OC)cc12 :: 2.7

GET /values?readout=Ratio IC50&item= C=C[C@H]1CN2CC[C@H]1C[C@@H]2[C@@H](O)c1cc(CC[C@@H](C)[C@H]2CC[C@H]3[C@@H]4C[C@H](OC(C)=O)[C@@H]5C[C@H](OC(C)=O)CC[C@]5(C)[C@H]4CC[C@]23C)nc2ccc(OC)cc12
1.3

Need Ratio IC50, item C=C[C@H]1CN2CC[C@H]1C[C@@H]2[C@@H](O)c1cc(CC[C@@H](C)[C@H]2CC[C@H]3[C@@H]4CC[C@@H]5C[C@H](O)CC[C@]5(C)[C@H]4C[C@H](O)[C@]23C)nc2ccc(OC)cc12
0.7

Data request, read-out Ratio IC50, for C=C[C@H]1CN2CC[C@H]1C[C@@H]2[C@@H](O)c1cc(CC[C@@H](C)[C@H]2CC[C@H]3[C@@H]4[C@H](OC(C)=O)C[C@@H]5C[C@H](OC(C)=O)CC[C@]5(C)[C@H]4C[C@H](OC(C)=O)[C@]23C)nc2ccc(OC)cc12
2.3
